biological target: uptake of serotonin; assay: Microdialysis Assays of Monoamines: inhibition of serotonin uptake; conditions: tested essentially as described for microdialysis assays
assay-readout: pKi
Lab note — pKi values are minus log10 of concentrations in M.

Noted for CNCC[C@@H](Oc1ccc(O)cc1C)c1ccccc1 : its pKi reads 7.37

====

target: uptake of norepinephrine; test: Microdialysis Assays of Monoamines: inhibition of norepinephrine uptake; details: tested essentially as described for microdialysis assays
assay-readout: Ki

Noted for CNCC[C@@H](Oc1ccc(O)cc1C)c1ccccc1 : its Ki reads 3 nM
